Test system: CCRF-CEM leukemia
assay-protocol: NCI-60 one-dose screen, 48 h (100 = growth as untreated, 0 = no growth, -100 = all killed)
applied-conditions: 10 µM unless noted
This is part of a sample that, as a whole, favours compounds with a hit. Of some 83,000 tested, about 20% had one in any assay. Calls of active or inactive are those of the source. Rule for the calls: active = growth percent below 10; inactive = the rest.
measured-endpoint: growth

Some molecules with recorded growth:
>  <molecule>
CCOC(=O)c1sc(NCC(=O)Nc2cccc([N+](=O)[O-])c2)c(C(=O)OCC)c1C

>  <growth>
7.16% (active)

$$$$
>  <molecule>
C#Cc1nc(C2=C(C)C(OC(=O)CCC(=O)O)CC2)cs1 (stereo not given)

>  <growth>
93.9% (inactive)

$$$$

Look at each molecule and report its growth.
1. CCOC(=O)c1c(Nc2ccccc2)nn2c(-c3ccco3)c(C#N)cnc12
2. O=C(N/N=C/c1ccc([N+](=O)[O-])s1)c1[nH]c2ccc(Br)cc2c1-c1ccccc1

Output:
1. 82.4% (inactive)
2. 16.1% (inactive)

Provide growth values for the following items, in order.
1. COc1cc2nc(-c3ccc(C)cc3)cc(OCCCNCC3CCCO3)c2cc1OC (stereo not given)
2. COc1cc(OC)c(S(=O)(=O)NNC(=O)c2ccncc2)cc1C(=O)/C=C/c1ccc(C)cc1

Output:
73.4% (inactive)
8.66% (active)

For each listed entry, give its growth.
1. [Cl][Ru].c1ccc(-c2cc(-c3ccccn3)nc(-c3ccccn3)c2)cc1.c1ccc(-c2ccnc3c2ccc2c(-c4ccccc4)ccnc23)cc1
2. COc1cc2nc(-c3ccc(C(F)(F)F)cc3)cc(OCCCNCC3CCCO3)c2cc1OC (stereo not given)
3. Cc1ccc(C(=O)Nc2cccc(C(F)(F)F)c2)cc1Nc1nc(-c2cnccn2)nc2c1cnn2C

Output:
1: 0.187% (active); 2: 28.6% (inactive); 3: 78.2% (inactive)

// for each molecule in input: emit growth
1. CCN1C(=S)N(CC)C2C1NN=C1SC(c3ccccc3)=CC(=O)N12 (stereo not given)
2. CCN1C(=S)N(CC)C2C1N=C(SC)N2/N=C/C=C/c1ccccc1[N+](=O)[O-] (stereo not given)
3. C/C(=C(/c1ccc(Cl)cc1)c1ccc(OCCN)cc1)c1ccc(C)cc1
4. O=C(N/N=C/c1ccco1)c1[nH]c2ccc(Br)cc2c1-c1ccccc1
5. Cc1sc2nc(NCc3ccccc3Cl)[nH]c(=O)c2c1C
6. CC(C)(C)OC(=O)N1C(=O)c2c(c3c4ccccc4[nH]c3c3ccc4ccccc4c23)C1=O
7. COc1ccc(-c2csc(N/N=C/c3c(-c4ccc(S(C)(=O)=O)cc4)nc4ccccn34)n2)cc1
8. Cc1sc2c(c1C)c(=O)nc1c(-c3nc(-c4ccc(F)cc4)no3)n[nH]n12

Output:
1. 97.5% (inactive)
2. 93.1% (inactive)
3. 98.9% (inactive)
4. 15.6% (inactive)
5. 65.3% (inactive)
6. 44.4% (inactive)
7. 94.2% (inactive)
8. 104% (inactive)
